The values you see were collected from patent US6521654B2.

Target: interaction between VCAM-1 and VLA-4 (Homo sapiens, UniProt P05556+P13612)
Construct: supplied in their natural form as surface molecules on human U937 cells; host or cells: U937 cells carry endogenous VLA-4; The partner hVCAM-1(1-3)-IgG was made in house in transfected COS cells (ATCC CRL1651) and used as culture supernatant
Sequence (P13612 34-1032): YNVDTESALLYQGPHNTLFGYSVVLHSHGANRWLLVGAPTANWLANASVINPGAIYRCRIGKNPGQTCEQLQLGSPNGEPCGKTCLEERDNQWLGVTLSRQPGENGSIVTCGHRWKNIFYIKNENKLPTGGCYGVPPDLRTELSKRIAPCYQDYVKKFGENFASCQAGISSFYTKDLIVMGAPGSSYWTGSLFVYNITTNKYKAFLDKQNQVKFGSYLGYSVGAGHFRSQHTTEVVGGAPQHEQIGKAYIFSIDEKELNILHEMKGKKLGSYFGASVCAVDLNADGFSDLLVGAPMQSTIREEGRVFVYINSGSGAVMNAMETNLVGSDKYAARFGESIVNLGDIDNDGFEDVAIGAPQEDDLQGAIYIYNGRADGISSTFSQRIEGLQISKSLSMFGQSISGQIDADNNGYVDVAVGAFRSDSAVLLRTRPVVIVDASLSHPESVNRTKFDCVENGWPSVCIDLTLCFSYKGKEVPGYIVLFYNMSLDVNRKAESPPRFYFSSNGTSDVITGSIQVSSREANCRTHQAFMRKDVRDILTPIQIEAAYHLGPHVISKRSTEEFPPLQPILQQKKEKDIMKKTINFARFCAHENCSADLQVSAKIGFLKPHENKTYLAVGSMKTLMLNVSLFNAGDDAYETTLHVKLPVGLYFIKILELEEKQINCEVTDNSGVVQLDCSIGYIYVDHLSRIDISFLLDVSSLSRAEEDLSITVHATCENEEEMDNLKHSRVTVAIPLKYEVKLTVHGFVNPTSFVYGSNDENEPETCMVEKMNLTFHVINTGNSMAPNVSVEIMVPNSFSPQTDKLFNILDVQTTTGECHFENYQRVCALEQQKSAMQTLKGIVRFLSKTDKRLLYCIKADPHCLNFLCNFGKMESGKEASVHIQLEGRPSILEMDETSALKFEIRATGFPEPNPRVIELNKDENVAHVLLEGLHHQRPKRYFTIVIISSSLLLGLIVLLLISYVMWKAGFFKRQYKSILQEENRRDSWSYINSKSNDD
Sequence (P05556 21-798): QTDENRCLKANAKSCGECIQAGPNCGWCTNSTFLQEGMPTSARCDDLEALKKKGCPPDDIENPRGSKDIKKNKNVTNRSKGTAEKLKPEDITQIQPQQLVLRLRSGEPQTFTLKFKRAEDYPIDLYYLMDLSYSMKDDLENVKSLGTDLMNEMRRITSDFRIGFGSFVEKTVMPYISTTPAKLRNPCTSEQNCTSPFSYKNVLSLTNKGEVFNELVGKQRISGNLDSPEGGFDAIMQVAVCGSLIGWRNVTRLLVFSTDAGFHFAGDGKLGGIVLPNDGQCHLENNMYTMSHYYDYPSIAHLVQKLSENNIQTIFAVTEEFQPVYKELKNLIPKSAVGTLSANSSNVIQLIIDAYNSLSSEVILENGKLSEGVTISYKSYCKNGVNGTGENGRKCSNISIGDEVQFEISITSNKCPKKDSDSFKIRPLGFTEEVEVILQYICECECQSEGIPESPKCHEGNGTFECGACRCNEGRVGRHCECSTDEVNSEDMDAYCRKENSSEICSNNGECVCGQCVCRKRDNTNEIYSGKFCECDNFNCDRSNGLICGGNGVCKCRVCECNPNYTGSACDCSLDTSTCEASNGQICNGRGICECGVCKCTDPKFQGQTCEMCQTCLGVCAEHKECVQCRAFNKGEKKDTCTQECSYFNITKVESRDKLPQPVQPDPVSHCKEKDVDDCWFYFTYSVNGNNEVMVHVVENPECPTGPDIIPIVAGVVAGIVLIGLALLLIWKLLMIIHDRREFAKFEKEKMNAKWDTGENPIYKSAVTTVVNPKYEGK
Assay: U937/VCAM-1 cell adhesion test (adhesion of U937 cells to hVCAM-1(1-3)-IgG)
Type: cell-based
Conditions: concentration leading to 50% inhibition of adhesion of human U937 cells (ATCC CRL 1593) to hVCAM-1(1-3)-IgG
pIC50: −log10 of the molar value.
readout-name: pIC50

1. CN(C(=O)CN1C(=O)N(Cc2ccc(NC(=O)Nc3ccccc3)cc2)C(C)(C)C1=O)[C@@H](CC(=O)O)C(=O)NC1C2CC3CC(C2)CC1C3 (stereo partly drawn) [Example 23] = 7.80

P = CC(C)C[C@@H](C(=O)N[C@@H](CC(=O)O)C(=O)N[C@H](C(=O)O)c1ccccc1)N1C(=O)N(Cc2ccc(NC(=O)Nc3ccc(F)cc3)cc2)C(C)(C)C1=O [Example 49]
Q = COc1ccc(C(CC(=O)O)NC(=O)C(CC(C)C)N2C(=O)N(Cc3ccc(NC(=O)Nc4ccccc4C)cc3)C(C)(c3ccccc3)C2=O)cc1OC (stereo not drawn) [Example 190]
Which shows the larger pIC50 value: P or Q ? Refer to your chosen entry by its label in the reply.
Q
